subject_of_test: Hepatitis C virus serine protease, NS3/NS4A (Hepatitis C virus, UniProt D2K2A8+A3EZI9)
assay_explanation: Inhibitory activity against Hepatitis C virus Non structural protein 3 serine protease/Non structural protein 4A serine protease
Type: protein-complex assay, Hepacivirus hominis
recorded_metric: Ki (nM)

Examples from the recorded data:
compound	recorded_measurement
CC(C)COC(=O)N[C@H](C(=O)N1CC(OCc2ccccc2)C[C@@H]1C(=O)N[C@@H](CC(F)F)C(=O)NCCc1c(F)cc(C(=O)O)cc1F)C(C)C (stereo in doubt; trans)	550
CC(C)COC(=O)N[C@H](C(=O)N1CC(c2ccccc2)C[C@@H]1C(=O)N[C@@H](CC(F)F)C(=O)NCCc1c(F)cc(C(=O)O)cc1F)C(C)C (some centres undefined)	450

1. CC(C)COC(=O)N[C@H](C(=O)N1CC(OCc2ccccc2)C[C@@H]1C(=O)N[C@@H](CC(F)F)C(=O)NCCc1c(F)cc(C(=O)O)cc1F)C(C)C (stereo in doubt; cis)
2. CC(C)COC(=O)N[C@H](C(=O)N1CC(C2CCCCC2)C[C@@H]1C(=O)N[C@@H](CC(F)F)C(=O)NCCc1c(F)cc(C(=O)O)cc1F)C(C)C (some centres undefined)
Incoming: Just curious, which one has the larger Ki reading, 1 or 2 ? To answer, give the label that identifies your chosen option.
Outgoing: 1
(1: 4500 nM, 2: 350 nM)

* * *

assay_explanation: Volume distribution in rats
Format: ADME, organism-based
cond: rat, in vivo; read-out: Vdss
recorded_metric: Vd (L/kg)

Examples from the recorded data:
compound	recorded_measurement
CC(C)COC(=O)N[C@H](C(=O)N1CC(c2ccccc2)C[C@@H]1C(=O)N[C@@H](CC(F)F)C(=O)NCCc1c(F)cc(C(=O)O)cc1F)C(C)C (some centres undefined)	2.4
CC(C)COC(=O)N[C@H](C(=O)N1CC(OCc2ccccc2)C[C@@H]1C(=O)N[C@@H](CC(F)F)C(=O)NCCc1c(F)cc(C(=O)O)cc1F)C(C)C (stereo in doubt; trans)	4.5

A. CC(C)COC(=O)N[C@H](C(=O)N1C[C@H](C2CCCCC2)C[C@H]1C(=O)N[C@@H](CC(F)F)C(=O)NCCc1c(F)cc(-c2nnn[nH]2)cc1F)C(C)C
B. CC(C)COC(=O)N[C@H](C(=O)N1CC(C2CCCCC2)C[C@@H]1C(=O)N[C@@H](CC(F)F)C(=O)NCCc1c(F)cc(C(=O)O)cc1F)C(C)C (some centres undefined)
Incoming: Just curious, which one has the larger Vd reading, A or B ? To answer, give the label that identifies your chosen option.
Outgoing: B
(B: 0.45 L/kg, A: 0.15 L/kg)

* * *

subject_of_test: Hepatitis C virus serine protease, NS3/NS4A (Hepatitis C virus, UniProt A3EZI9+D2K2A8)
Sequence (D2K2A8 whole entry): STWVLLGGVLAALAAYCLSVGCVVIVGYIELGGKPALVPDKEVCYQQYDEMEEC
Sequence (A3EZI9 whole entry): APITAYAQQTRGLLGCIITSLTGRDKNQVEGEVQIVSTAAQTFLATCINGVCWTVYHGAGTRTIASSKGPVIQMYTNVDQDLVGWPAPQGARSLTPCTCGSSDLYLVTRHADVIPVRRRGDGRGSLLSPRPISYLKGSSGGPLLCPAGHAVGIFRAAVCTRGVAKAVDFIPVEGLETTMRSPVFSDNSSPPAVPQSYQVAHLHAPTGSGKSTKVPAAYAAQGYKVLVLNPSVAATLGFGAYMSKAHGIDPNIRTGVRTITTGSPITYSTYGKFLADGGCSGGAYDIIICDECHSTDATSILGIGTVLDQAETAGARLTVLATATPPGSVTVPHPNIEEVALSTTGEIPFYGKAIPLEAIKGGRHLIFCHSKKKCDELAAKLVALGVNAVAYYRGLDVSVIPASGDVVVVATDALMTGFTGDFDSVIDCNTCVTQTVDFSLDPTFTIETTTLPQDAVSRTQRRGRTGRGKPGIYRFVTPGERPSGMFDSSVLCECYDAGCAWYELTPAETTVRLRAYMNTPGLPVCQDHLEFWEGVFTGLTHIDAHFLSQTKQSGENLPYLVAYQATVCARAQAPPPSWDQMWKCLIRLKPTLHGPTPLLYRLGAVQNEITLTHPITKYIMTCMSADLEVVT
assay_explanation: Inhibitory activity against Hepatitis C virus Non structural protein 3 serine protease/Non structural protein 4A serine protease
recorded_metric: Ki (µM)

Examples from the recorded data:
molecule	Ki / µM
CC(C)COC(=O)N[C@H](C(=O)N1C[C@H](C2CCCCC2)C[C@H]1C(=O)N[C@@H](CC(F)F)C(=O)NCCc1c(F)cc(C(=O)NS(C)(=O)=O)cc1F)C(C)C	0.45
CC(C)COC(=O)N[C@H](C(=O)N[C@@H](CC(C)C)C(=O)N[C@@H](CC(F)F)C(=O)NCCc1c(F)cc(C(=O)O)cc1F)C(C)C	0.4

a. CCC(Nc1cccc(CCNC(=O)[C@H](CC(F)F)NC(=O)[C@@H]2C[C@@H](C3CCCCC3)CN2C(=O)[C@@H](NC(=O)OCC(C)C)C(C)C)c1)C(=O)O (stereo partly specified)
b. CC(C)COC(=O)N[C@H](C(=O)N1C[C@H](c2ccccc2)C[C@H]1C(=O)N[C@@H](CC(F)F)C(=O)NCCc1cc(/C=C/C(=O)O)ccc1F)C(C)C
c. CC(C)COC(=O)N[C@H](C(=O)N1C[C@H](c2ccccc2)C[C@H]1C(=O)N[C@@H](CC(F)F)C(=O)NCCc1cccc(/C=C/C(=O)O)c1)C(C)C
d. CC(C)COC(=O)N[C@H](C(=O)N1C[C@H](C2CCCCC2)C[C@H]1C(=O)N[C@@H](CC(F)F)C(=O)NCCc1c(F)ccc(OCC(=O)O)c1F)C(C)C
Incoming: Hi! Can you put these in order of Ki, lowest number first? Respond with the label ranking, as requested.
Outgoing: d, b, a, c
(d: 0.19 µM, b: 0.35 µM, a: 0.5 µM, c: 1.3 µM)

* * *

assay_explanation: Half life in rats
Type: ADME
cond: rat, in vivo
recorded_metric: half-life (h)

Examples from the recorded data:
compound	recorded_metric	recorded_measurement
CC(C)COC(=O)N[C@H](C(=O)N1CC(C2CCCCC2)C[C@@H]1C(=O)N[C@@H](CC(F)F)C(=O)NCCc1c(F)cc(C(=O)O)cc1F)C(C)C (some centres undefined)	half-life	0.25
CC(C)COC(=O)N[C@H](C(=O)N1C[C@H](C2CCCCC2)C[C@H]1C(=O)N[C@@H](CC(F)F)C(=O)NCCc1c(F)cc(-c2nnn[nH]2)cc1F)C(C)C	half-life	1.23

A. CC(C)COC(=O)N[C@H](C(=O)N1CC(c2ccccc2)C[C@@H]1C(=O)N[C@@H](CC(F)F)C(=O)NCCc1c(F)cc(C(=O)O)cc1F)C(C)C (some centres undefined)
B. CC(C)COC(=O)N[C@H](C(=O)N1CC(OCc2ccccc2)C[C@@H]1C(=O)N[C@@H](CC(F)F)C(=O)NCCc1c(F)cc(C(=O)O)cc1F)C(C)C (stereo in doubt; trans)
Incoming: # return whichever of A and B has the smaller half-life To answer, give the label that identifies your chosen option.
Outgoing: B
(B: 0.8 h, A: 1.2 h)

* * *

assay_explanation: Volume distribution in rats at 2 mg/kg
Type: ADME, organism-based
Design: dose 2 mg/kg
cond: rat, in vivo, read-out: Vdss
recorded_metric: Vd (L/kg)
Express your answer in L/kg, writing the number without its unit.

Incoming: Need Vd, item CC(C)COC(=O)N[C@H](C(=O)N1C[C@H](C2CCCCC2)C[C@H]1C(=O)N[C@@H](CC(F)F)C(=O)NCCc1c(F)cc(C(=O)NS(C)(=O)=O)cc1F)C(C)C
Outgoing: 0.8

* * *

subject_of_test: Hepatitis C virus serine protease, NS3/NS4A (Hepatitis C virus, UniProt A3EZI9+D2K2A8)
assay_explanation: Inhibitory activity against Hepatitis C virus Non structural protein 3 serine protease/Non structural protein 4A serine protease
Type: protein-complex assay, Hepacivirus hominis
pKi: −log10 of the molar value.
recorded_metric: pKi

Examples from the recorded data:
molecule	pKi
CC(C)COC(=O)N[C@H](C(=O)N[C@@H](CC(C)C)C(=O)N[C@@H](CC(F)F)C(=O)NCCc1ccc(C(=O)O)cc1Cl)C(C)C	5.92
COc1ccc2c(O[C@@H]3C[C@@H](C(=O)N[C@@H](CC(F)F)C(=O)NCCc4c(F)cc(C(=O)O)cc4F)N(C(=O)C(NC(=O)OCC(C)C)C(C)(C)C)C3)cc(-c3ccccc3)nc2c1 (stereo not given in full)	7.52

P. CC(C)COC(=O)N[C@H](C(=O)N1C[C@H](c2ccccc2)C[C@H]1C(=O)N[C@@H](CC(F)F)C(=O)NCCc1cccc(/C=C/C(=O)O)c1F)C(C)C
Q. CC(C)COC(=O)N[C@H](C(=O)N1C[C@H](C2CCCCC2)C[C@H]1C(=O)N[C@@H](CC(F)F)C(=O)NCCc1c(F)cc(-c2nnn[nH]2)cc1F)C(C)C
R. CC(C)COC(=O)N[C@H](C(=O)N1C[C@H](c2ccccc2)C[C@H]1C(=O)N[C@@H](CC(F)F)C(=O)NCCc1cccc(OC(C(=O)O)c2ccccc2)c1)C(C)C (stereo not given in full)
Incoming: Please list these molecules in decreasing order of pKi. Respond with the label ranking, as requested.
Outgoing: Q, P, R
(Q: 7.00, P: 6.40, R: 6.00)

* * *

assay_explanation: Area under curve in rats
Type: ADME
cond: rat, in vivo
recorded_metric: AUC (µM·h)

P. CC(C)COC(=O)N[C@H](C(=O)N1CC(C2CCCCC2)C[C@@H]1C(=O)N[C@@H](CC(F)F)C(=O)NCCc1c(F)cc(C(=O)O)cc1F)C(C)C (some centres undefined)
Q. CC(C)COC(=O)N[C@H](C(=O)N1CC(OCc2ccccc2)C[C@@H]1C(=O)N[C@@H](CC(F)F)C(=O)NCCc1c(F)cc(C(=O)O)cc1F)C(C)C (stereo in doubt; trans)
R. CC(C)COC(=O)N[C@H](C(=O)N1C[C@H](C2CCCCC2)C[C@H]1C(=O)N[C@@H](CC(F)F)C(=O)NCCc1c(F)cc(-c2nnn[nH]2)cc1F)C(C)C
S. CC(C)COC(=O)N[C@H](C(=O)N1CC(c2ccccc2)C[C@@H]1C(=O)N[C@@H](CC(F)F)C(=O)NCCc1c(F)cc(C(=O)O)cc1F)C(C)C (some centres undefined)
Incoming: Thanks in advance: please rank these 4 entries by AUC, highest to lowest. Respond with the label ranking, as requested.
Outgoing: R, P, S, Q

The measurements presented in this section are drawn from ChEMBL document CHEMBL1137195.
